Reference source for all entries: patent US20250361288A1

# assayedTarget: T1, human LTβR extracellular domain fused with an Fc fragment at the C-terminus (human, UniProt P36941 31-227)
# T1 construct: extracellular domain; Bought; also called hLTβR; not shown: Fc fragment at the C-terminus
# T1 sequence (P36941 31-227): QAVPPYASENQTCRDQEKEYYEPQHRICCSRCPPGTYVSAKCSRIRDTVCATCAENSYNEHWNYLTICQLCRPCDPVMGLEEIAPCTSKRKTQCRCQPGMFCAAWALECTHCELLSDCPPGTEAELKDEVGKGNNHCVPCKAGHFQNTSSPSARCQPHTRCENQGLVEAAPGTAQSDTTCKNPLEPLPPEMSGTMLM
# assayRemarks: ELISA on coated target-Fc
Below: a set of entries, each annotated with reported EC50.
propertyName: EC50 (µg/mL)

| binder | propertyName | resultUnit | recordedNumber |
| --- | --- | --- | --- |
| LIGHT-52 (ligand, Printed mutations: L220S; Soluble protein carries an N-terminal His tag) DGPAGSWEQLIQERRSHEVNPAAHLTGANSSLTGSGGPLLWETQLGLAFLRGLSYHDGALVVTKAGYYYIYSKVQLGGVGCPLGLASTITHGLYKRTPRYPEELELLVSQQSPCGRATSSSRVWWDSSFLGGVVHLEAGEKVVVRVSDERLVRLRDGTRSYFGAFMV | EC50 | µg/mL | 0.0577 |
| LIGHT-41 (ligand, Printed mutations: G150R, S160G, L220S; Soluble protein carries an N-terminal His tag) DGPAGSWEQLIQERRSHEVNPAAHLTGANSSLTGSGGPLLWETQLGLAFLRGLSYHDGALVVTKAGYYYIYSKVQLRGVGCPLGLAGTITHGLYKRTPRYPEELELLVSQQSPCGRATSSSRVWWDSSFLGGVVHLEAGEKVVVRVSDERLVRLRDGTRSYFGAFMV | EC50 | µg/mL | 0.108 |
| LIGHT-40 (ligand, Printed mutations: L156P, H208Y; Soluble protein carries an N-terminal His tag) DGPAGSWEQLIQERRSHEVNPAAHLTGANSSLTGSGGPLLWETQLGLAFLRGLSYHDGALVVTKAGYYYIYSKVQLGGVGCPPGLASTITHGLYKRTPRYPEELELLVSQQSPCGRATSSSRVWWDSSFLGGVVYLEAGEKVVVRVLDERLVRLRDGTRSYFGAFMV | EC50 | µg/mL | 0.0959 |
| LIGHT-28 (ligand, Printed mutations: S160N, K214E, L227M; Soluble protein carries an N-terminal His tag) DGPAGSWEQLIQERRSHEVNPAAHLTGANSSLTGSGGPLLWETQLGLAFLRGLSYHDGALVVTKAGYYYIYSKVQLGGVGCPLGLANTITHGLYKRTPRYPEELELLVSQQSPCGRATSSSRVWWDSSFLGGVVHLEAGEEVVVRVLDERLVRMRDGTRSYFGAFMV | EC50 | µg/mL | 0.0811 |
| LIGHT-36 (ligand, Printed mutations: H208Y; Soluble protein carries an N-terminal His tag) DGPAGSWEQLIQERRSHEVNPAAHLTGANSSLTGSGGPLLWETQLGLAFLRGLSYHDGALVVTKAGYYYIYSKVQLGGVGCPLGLASTITHGLYKRTPRYPEELELLVSQQSPCGRATSSSRVWWDSSFLGGVVYLEAGEKVVVRVLDERLVRLRDGTRSYFGAFMV | EC50 | µg/mL | 0.19 |
| LIGHT-9 (ligand, Printed mutations: G150S, T161G, L220S; Soluble protein carries an N-terminal His tag) DGPAGSWEQLIQERRSHEVNPAAHLTGANSSLTGSGGPLLWETQLGLAFLRGLSYHDGALVVTKAGYYYIYSKVQLSGVGCPLGLASGITHGLYKRTPRYPEELELLVSQQSPCGRATSSSRVWWDSSFLGGVVHLEAGEKVVVRVSDERLVRLRDGTRSYFGAFMV | EC50 | µg/mL | 0.0282 |
